study_system: RORγ receptor (Homo sapiens, UniProt P51449)
Construct: Jurkat pEx/Gal/hRORγ CLBD/HYG pG51uc/blast
Sequence (P51449 269-508 limits assumed): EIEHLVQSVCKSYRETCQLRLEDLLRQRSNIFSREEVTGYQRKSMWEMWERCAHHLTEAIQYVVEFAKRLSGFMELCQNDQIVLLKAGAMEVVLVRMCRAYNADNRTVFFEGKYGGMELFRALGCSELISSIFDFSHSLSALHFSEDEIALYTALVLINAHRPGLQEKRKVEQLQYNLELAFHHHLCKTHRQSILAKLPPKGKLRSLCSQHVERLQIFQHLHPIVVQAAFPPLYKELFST
method_description: General RORγ Gal4 reporter assay (inverse agonist activity, inhibition of luminescence)
condition_parameters: Gal4-luciferase reporter in Jurkat cells stably over-expressing hRORγ LBD; overnight incubation; 40 μM to 0.67 nM
pIC50: −log10 of the molar value. Counter-ions that a name gives are not always drawn.
measurement_type: pIC50

molecule	study_system	pIC50
N#CCCN1C(=O)CC[C@H]1C(=O)N1CCC2(S(=O)(=O)c3ccccc3)c3ccc(C(F)(C(F)(F)F)C(F)(F)F)nc3CCC12 (stereo partly shown)	RORγ receptor (Homo sapiens, UniProt P51449)	7.89
CC(C)(O)CN1C(=O)[C@H](F)C[C@@H]1C(=O)N1CCC2(S(=O)(=O)c3ccc(F)cc3)c3ccc(C(F)(C(F)(F)F)C(F)(F)F)nc3CCC12 (single isomer, unassigned)	RORγ receptor (Homo sapiens, UniProt P51449)	6.77
O=C([C@@H]1C[C@@H](F)C(=O)N1CCO)N1CCC2(S(=O)(=O)c3ccc(F)cc3)c3ncc(C(F)(C(F)(F)F)C(F)(F)F)cc3CCC12 (single isomer, unassigned)	RORγ receptor (Homo sapiens, UniProt P51449)	6.96
CC(C)(O)CN1C(=O)[C@H](F)C[C@H]1C(=O)N1CCC2(S(=O)(=O)c3ccc(F)cc3)c3cnc(C(F)(C(F)(F)F)C(F)(F)F)cc3CCC12 (stereo partly shown)	RORγ receptor (Homo sapiens, UniProt P51449)	7.54
O=C(O)[C@H]1CC[C@H](C(=O)N2CCC3(S(=O)(=O)c4cccc(F)c4)c4cnc(C(F)(C(F)(F)F)C(F)(F)F)cc4CCC23)CC1 (stereo partly shown)	RORγ receptor (Homo sapiens, UniProt P51449)	7.89

(P) O=C(C1CCS(=O)(=O)CC1)N1CCC2(S(=O)(=O)c3ccc(F)cc3)c3ncc(C(F)(C(F)(F)F)C(F)(F)F)cc3CCC12 (stereo not shown)
(Q) O=C1N[C@H](C(=O)N2CCC3(S(=O)(=O)c4cccc(F)c4)c4cnc(C(F)(C(F)(F)F)C(F)(F)F)cc4CCC23)[C@H]2C[C@@H]12 (stereo partly shown)
(R) O=C(O)C12CCC(C(=O)N3CCC4(S(=O)(=O)c5ccc(F)cc5)c5ncc(C(F)(C(F)(F)F)C(F)(F)F)cc5CCC34)(CC1)CC2 (stereo not shown)
(S) C[C@H]1C[C@H](C(=O)O)CC[C@H]1C(=O)N1CCC2(S(=O)(=O)c3ccc(F)cc3)c3ncc(C(F)(C(F)(F)F)C(F)(F)F)cc3CCC12 (single isomer, unassigned) [Example 23, trifluoroacetate]
(T) CC(C)(O)CN1C(=O)[C@H](F)C[C@H]1C(=O)N1CCC2(S(=O)(=O)c3cccc(F)c3)c3ccc(C(F)(C(F)(F)F)C(F)(F)F)nc3CCC12 (stereo partly shown)
Rank by pIC50 (largest to smallest). Answer by naming the labels in the order asked. T, R, P, S, Q
(T: 7.59, R: 7.27, P: 7.04, S: 6.50, Q: 5.48)

(1) CC(C)(O)CN1C(=O)CCN1C(=O)N1CCC2(S(=O)(=O)c3ccc(F)cc3)c3cnc(C(F)(C(F)(F)F)C(F)(F)F)cc3CCC12 (stereo not shown)
(2) CC(C)(O)CN1C(=O)[C@H](F)C[C@@H]1C(=O)N1CCC2(S(=O)(=O)c3cccc(F)c3)c3ccc(C(F)(C(F)(F)F)C(F)(F)F)nc3CCC12 (stereo partly shown)
Given 1 and 2 , report the one with the higher recorded pIC50. Pick one and reply with its label. 1
